- experiment-summary: PSAC antagonists in infected red cells, primary screen, cell-based, P. falciparum Indochina, OD700, 1 h (AID 1154)
- protocol-conditions: P. falciparum Indochina infected RBC osmotic lysis, called active from +8 up or from −8 down
The source made the active and inactive calls.
Outcomes: yes (1) (active), no (0) (inactive)

CC(=O)NCCCC[C@@H]1NC(=O)[C@@H]2C[C@H](C(=O)NCCCCCNC(=O)CS)[C@H](c3cccc(OCCO)c3)N2C1=O
no (0)
COCCOC(=O)N1C(=O)[C@@]2(c3cc(C#CCCO)ccc31)[C@H](C(=O)N1CCCCCCC1)[C@H]1C(=O)O[C@H](c3ccccc3)[C@H](c3ccccc3)N1[C@@H]2c1ccc(OCCO)cc1
no (0)
COc1ccc(CCNC(=O)[C@@]2(C)c3ccccc3C(=O)N(C(C)C)[C@H]2c2ccc(CO)cc2)cc1
no (0)
CN1C(=O)C2C=CC(C(O)c3ccccc3)N(N(c3ccccc3)c3ccccc3)C2C1=O (stereo not drawn)
no (0)
C=CCOC(=O)[C@H]1[C@@H]2C(=O)O[C@@H](c3ccccc3)[C@@H](c3ccccc3)N2[C@@H](c2ccc(OCCOC(=O)[C@H]3C[C@H]4C(=O)N[C@@H](CCCCNC(C)=O)C(=O)N4[C@H]3c3ccc(O)cc3)cc2)[C@]12C(=O)Nc1ccc(I)cc12
no (0)
CN1C(=O)C2C=CC(C(O)c3ccc([N+](=O)[O-])cc3)N(N3CCCCC3)C2C1=O (stereo not drawn)
no (0)
C=C(CCCC)/C(=C/C[C@H](OC(=O)c1ccncc1)c1ccccc1OCCO)c1cnc2ccccc2c1
yes (1)
O=C1c2ccccc2[C@](Cc2ccccc2I)(C(=O)NCCN2CCOCC2)[C@H](c2ccc(CO)cc2)N1C1CCCCC1
no (0)
C=CCN1C(=O)[C@]2(O[C@H](CCn3cc([C@H](O)c4ccccc4)nn3)[C@@H]([Si](C)(C)c3ccc(OC)cc3)[C@@H]2C)c2cc(N3CCC3=O)ccc21
no (0)
COC(=O)[C@H](Cc1ccccc1)N1CC2=C[C@@H](C3CC3)n3c(=O)n(C)c(=O)n3[C@H]2[C@@H]1[C@@H](O)Cc1ccccc1
yes (1)
COC(=O)[C@@]1(Cc2ccccc2)[C@H]2c3cc(C(=O)N(C)C)n(Cc4ccsc4Br)c3C[C@H]2CN1C(=O)c1ccccc1
no (0)
CN(C)C(=O)[C@]1(Cc2ccccc2N=[N+]=[N-])N=C(c2ccc(OCCCO)cc2)O[C@@H]1c1ccccc1N=[N+]=[N-]
yes (1)
COCCOC(=O)N1C(=O)[C@@]2(c3cc(C#Cc4ccc(OC)cc4)ccc31)[C@H](c1ccccc1OCCO)N1[C@H](c3ccccc3)[C@H](c3ccccc3)OC(=O)[C@H]1[C@@H]2C(=O)NC[C@H](O)c1ccccc1
no (0)

* * *

- target-or-system: Neurogenic locus notch homolog protein 2 (Homo sapiens) (UniProt Q04721)
- Sequence (Q04721 whole entry, looked up): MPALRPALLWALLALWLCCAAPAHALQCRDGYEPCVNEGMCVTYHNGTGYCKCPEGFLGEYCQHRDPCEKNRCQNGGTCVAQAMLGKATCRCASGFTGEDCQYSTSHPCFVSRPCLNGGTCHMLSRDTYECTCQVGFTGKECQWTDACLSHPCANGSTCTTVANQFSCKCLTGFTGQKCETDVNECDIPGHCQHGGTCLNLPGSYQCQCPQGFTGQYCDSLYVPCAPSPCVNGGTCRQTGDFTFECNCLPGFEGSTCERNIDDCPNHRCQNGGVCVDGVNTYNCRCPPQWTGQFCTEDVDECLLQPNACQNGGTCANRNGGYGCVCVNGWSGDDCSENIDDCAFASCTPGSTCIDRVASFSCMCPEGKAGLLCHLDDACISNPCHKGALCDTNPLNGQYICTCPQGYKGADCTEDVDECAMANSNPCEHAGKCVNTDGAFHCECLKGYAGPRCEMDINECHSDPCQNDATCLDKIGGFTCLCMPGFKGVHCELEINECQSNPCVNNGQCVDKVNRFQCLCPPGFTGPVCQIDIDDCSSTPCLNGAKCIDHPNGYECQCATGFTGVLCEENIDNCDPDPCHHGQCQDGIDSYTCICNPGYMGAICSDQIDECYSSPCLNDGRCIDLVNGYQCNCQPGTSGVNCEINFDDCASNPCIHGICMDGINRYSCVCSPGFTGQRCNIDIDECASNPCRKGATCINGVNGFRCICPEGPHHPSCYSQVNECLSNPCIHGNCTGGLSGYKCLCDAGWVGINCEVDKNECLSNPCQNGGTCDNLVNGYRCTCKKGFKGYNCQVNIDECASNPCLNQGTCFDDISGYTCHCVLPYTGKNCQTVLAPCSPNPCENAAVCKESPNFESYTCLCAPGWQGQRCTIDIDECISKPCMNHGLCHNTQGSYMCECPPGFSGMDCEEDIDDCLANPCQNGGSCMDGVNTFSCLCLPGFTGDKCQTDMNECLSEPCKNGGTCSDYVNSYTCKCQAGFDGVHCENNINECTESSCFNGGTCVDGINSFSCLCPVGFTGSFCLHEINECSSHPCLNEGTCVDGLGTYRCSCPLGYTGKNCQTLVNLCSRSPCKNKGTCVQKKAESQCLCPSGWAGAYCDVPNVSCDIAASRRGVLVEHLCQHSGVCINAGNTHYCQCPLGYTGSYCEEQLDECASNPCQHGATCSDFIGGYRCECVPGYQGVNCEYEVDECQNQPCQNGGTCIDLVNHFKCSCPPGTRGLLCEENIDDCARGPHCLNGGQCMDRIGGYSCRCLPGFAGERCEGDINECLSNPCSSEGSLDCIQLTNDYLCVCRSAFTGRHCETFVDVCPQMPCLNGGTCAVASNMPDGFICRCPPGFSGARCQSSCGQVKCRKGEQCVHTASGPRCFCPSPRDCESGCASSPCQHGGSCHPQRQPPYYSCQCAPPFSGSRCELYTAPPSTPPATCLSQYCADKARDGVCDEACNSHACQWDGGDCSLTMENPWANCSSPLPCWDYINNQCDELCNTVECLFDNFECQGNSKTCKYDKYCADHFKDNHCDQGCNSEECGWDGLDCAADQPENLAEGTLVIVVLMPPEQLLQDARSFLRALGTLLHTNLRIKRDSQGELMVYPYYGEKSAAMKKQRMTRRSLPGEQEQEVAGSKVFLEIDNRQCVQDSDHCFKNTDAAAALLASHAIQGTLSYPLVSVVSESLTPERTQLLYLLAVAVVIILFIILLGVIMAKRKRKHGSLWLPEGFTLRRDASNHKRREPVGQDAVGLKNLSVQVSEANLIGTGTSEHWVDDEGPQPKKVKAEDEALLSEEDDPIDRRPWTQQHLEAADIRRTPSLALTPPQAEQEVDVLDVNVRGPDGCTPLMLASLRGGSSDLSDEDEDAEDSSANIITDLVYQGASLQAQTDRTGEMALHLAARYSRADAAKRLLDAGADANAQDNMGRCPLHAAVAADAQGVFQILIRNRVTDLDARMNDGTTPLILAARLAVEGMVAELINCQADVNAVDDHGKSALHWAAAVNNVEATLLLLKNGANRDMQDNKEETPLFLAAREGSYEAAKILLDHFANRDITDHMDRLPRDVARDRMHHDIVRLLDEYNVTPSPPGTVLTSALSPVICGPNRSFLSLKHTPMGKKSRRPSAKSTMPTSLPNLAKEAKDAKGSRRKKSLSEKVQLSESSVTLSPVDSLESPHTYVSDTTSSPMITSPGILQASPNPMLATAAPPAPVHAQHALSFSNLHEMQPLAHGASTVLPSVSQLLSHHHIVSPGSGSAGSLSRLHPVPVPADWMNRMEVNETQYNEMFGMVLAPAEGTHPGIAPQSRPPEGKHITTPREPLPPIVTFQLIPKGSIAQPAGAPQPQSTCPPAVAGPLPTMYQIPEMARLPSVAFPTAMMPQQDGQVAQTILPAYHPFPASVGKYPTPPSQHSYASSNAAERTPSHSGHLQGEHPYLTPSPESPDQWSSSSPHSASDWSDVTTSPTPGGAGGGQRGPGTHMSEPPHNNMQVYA
- experiment-summary: Notch2 binders on small-molecule microarrays, primary screen, biochemical, small-molecule microarray, 635 nm fluorescence, stem cell growth factors (AID 1073)
- protocol-conditions: Notch2 binding, higher = more signal
Kind request: treat 0.6 as inclusive, so composite z-score at 0.6 or higher is met, anything lower is not met.

NC(=O)NCC#Cc1ccc2c(c1)[C@]1(C(=O)N2)[C@H](c2ccc(O)cc2)N2[C@H](c3ccccc3)[C@H](c3ccccc3)OC(=O)[C@H]2[C@@H]1C(=O)O
not met
CC(C)C[C@@H]1NC(=O)[C@H](C(C)C)NC(=O)[C@@]23C(=O)N[C@@H](Cc4ccccc4)C2[C@H](C)[C@@]2(C)O[C@H]2C3/C=C/CC/C=C/CNC1=O (stereo partly specified)
met
COC(=O)c1c(CC[C@@H](CO)NC(=O)NCCn2cc(C3(O)CCCC3)nn2)oc(C(C)=O)c1C(=O)OC
not met
O=C1NC(=O)C2C1C=CC(C(O)c1cc(C(F)(F)F)cc(C(F)(F)F)c1)N2Nc1ccccn1 (stereo unspecified)
not met
C=CC(=C)[C@H]1Oc2ccccc2S(=O)(=O)N2CCC[C@@H]12
not met
CC(=O)NCCCC[C@@H]1NC(=O)[C@H]2C[C@@H](C(=O)NCCCCCCNC(=O)CS)[C@@H](c3ccc(O)cc3)N2C1=O
not met
CCOC(=O)C1=CC[C@@H](c2ccccc2)N(S(=O)(=O)c2ccc(C)cc2)[C@H]1c1ccccc1C
met
CC1(C)C2C=C(C(O)C3C=CC4C(=O)NC(=O)C4N3Nc3ccc(Cl)cc3Cl)C[C@@H]1C2 (stereo partly specified)
met
CO[C@H]1O[C@H](CO)[C@@H](OC(=O)Nc2cccc(F)c2)[C@H](OC(=O)Nc2ccccc2)[C@@H]1OC(=O)Nc1ccccc1
met
Cc1ccc(S[C@]2(C(=O)NCCCN(C)C)CC(=O)N(Cc3cc(C(F)(F)F)cc(C(F)(F)F)c3)[C@@H]2c2ccc(CO)cc2I)cc1
not met
O=C1O[C@@H](c2ccccc2)[C@@H](c2ccccc2)N2[C@@H](c3ccccc3OCCO)[C@]3(C(=O)Nc4ccc(C#CC5=CCCCC5)cc43)[C@@H](C(=O)N3CCCCCCC3)[C@H]12
met
COc1ccc([Si](C)(C)[C@H]2[C@H](CC(=O)N3Cc4ccccc4C[C@H]3CO)O[C@@]3(C(=O)N(Cc4cccc(N5CCC5=O)c4)c4ccccc43)[C@@H]2C)cc1
met
COC(=O)C(CC#Cc1ccc2c(c1)[C@]1(C(=O)N2)[C@H](C(=O)Nc2nc3ccccc3s2)[C@H]2C(=O)O[C@H](c3ccccc3)[C@H](c3ccccc3)N2[C@@H]1c1ccccc1OCCO)C(=O)OC
met
[N-]=[N+]=Nc1ccccc1[C@@H]1OC(c2ccc(OCCCO)cc2)=N[C@]1(CCS(=O)(=O)c1ccccc1)C(N)=O
met
C=C(COC)/C(=C/C[C@@H](OC(=O)c1ccncc1)c1ccc(CO)o1)c1cc(C(=O)OC)ccc1OC
met
COCCOC(=O)N1C(=O)[C@@]2(c3cc(C#CCC(C(=O)OC)C(=O)OC)ccc31)[C@H](C(=O)N1CCN(c3ncccn3)CC1)[C@H]1C(=O)O[C@H](c3ccccc3)[C@H](c3ccccc3)N1[C@@H]2c1ccccc1OCCO
met
C=C(/C(=C/C[C@H](OC(C)=O)c1ccc(CO)o1)c1cc(C(=O)OC)ccc1OC)C(C)C
not met
CC(C)(C)OC(=O)CC[C@]1(C(=O)N2CCOCC2)N=C(c2ccc(OCCCO)cc2)O[C@H]1c1ccccc1N=[N+]=[N-]
met
CN(C)C(=O)[C@@]1(CCS(=O)(=O)c2ccccc2)COC(c2ccc(OCCCO)cc2)=N1
not met
COCCOC(=O)N1C(=O)[C@@]2(c3cc(C#CCC(C(=O)OC)C(=O)OC)ccc31)[C@H](c1ccccc1OCCO)N1[C@H](c3ccccc3)[C@H](c3ccccc3)OC(=O)[C@H]1[C@@H]2C(=O)NC[C@H](O)c1ccccc1
met
COCCOC(=O)N1C(=O)[C@@]2(c3cc(C#CC4(O)CCCCCC4)ccc31)[C@H](c1ccccc1OCCO)N1[C@H](c3ccccc3)[C@H](c3ccccc3)OC(=O)[C@H]1[C@@H]2C(=O)N1CCN(c2ncccn2)CC1
met
COCCOC(=O)N1C(=O)[C@@]2(c3cc(C#CCCO)ccc31)[C@H](C(=O)N1CCCCCCC1)[C@H]1C(=O)O[C@H](c3ccccc3)[C@H](c3ccccc3)N1[C@@H]2c1ccc(OCCO)cc1
met
CCCC#C[Si](O[C@H](CC)c1cn(Cc2cccc(Cl)c2)nn1)(C(C)C)C(C)C
met
COc1cc(COC(C)=O)ccc1OC(C)=O
not met
O=C1C2C=CC(C(O)c3cc(C(F)(F)F)cc(C(F)(F)F)c3)N(n3cnnc3)C2C(=O)N1Cc1ccccc1 (stereo unspecified)
not met

* * *

- experiment-summary: MM1S cell viability effects, profiling panel, calcein-AM fluorescence, 48 h, basal (AID 1165);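 also: viability of MM1S multiple myeloma cells under basal unstimulated conditions; test concentration not given here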
- protocol-conditions: higher = more signal
This listing pairs molecules with measured z-score.
measured-quantity: z-score

C=C(/C(=C/C[C@H](OC(C)=O)c1ccccc1OCCO)c1cnc2ccccc2c1)C(C)C
-3.32
COC(=O)[C@@]1(CCS(=O)(=O)c2ccccc2)N=C(c2ccc(OCCCO)cc2)O[C@H]1c1ccccc1CN=[N+]=[N-]
-1.92
CC1CC/C=C\[C@H]2OC34C=CCN(C(C)(C)C)C(=O)[C@H]3N(C(C)CO)C(=O)[C@@H]4C2C(=O)O1 (stereo partly drawn)
0.771
CC(C)N1C(=O)[C@@]2(Cc3ccccc31)c1ccccc1C(=O)N(Cc1ccccc1Cl)[C@H]2c1ccc(CO)cc1
-1.58
Cc1ccc(S[C@]2(C(=O)NC3CC3)CC(=O)N(Cc3ccccc3)[C@@H]2c2ccc(CO)cc2I)cc1
-1.99
COC(=O)[C@@]1(Cc2ccccc2)N=C(c2ccc(OCCCO)cc2)O[C@H]1c1ccccc1
-3.6
O=C1C2C=CC(C(O)Cc3ccccc3)N(n3cnnc3)C2C(=O)N1Cc1ccccc1 (stereo not drawn)
-0.304
CCCC=C(CCC)[C@@H](NC(=O)c1cccs1)c1ccc(C(F)(F)F)cc1
-1.41
